Hello, the source for this data is the supplement of paper PMC8728848, in case you need it.

- targetEntity: Neu5Ac(b2-6)Gal(b1-4)GlcNAc
- assaySummary: glycan array binding signal (z-score within array); higher = stronger binding
- assaySetup: glycan notation: IUPAC condensed, linker removed
The full list was thinned out, with the strongest signals kept by preference.
Binary classification by glycan array binding signal (z-score), with -0.4 as an inclusive lower bound for YES; all other cases are NO.

{"columns": ["binder", "label"],
 "data": [
  ["rMpL (Macrolepiota procera) (protein) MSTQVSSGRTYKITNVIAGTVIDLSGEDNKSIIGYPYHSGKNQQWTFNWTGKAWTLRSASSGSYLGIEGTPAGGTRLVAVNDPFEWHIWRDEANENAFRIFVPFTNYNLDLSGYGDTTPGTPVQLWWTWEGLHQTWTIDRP", "YES"],
  ["DC-SIGN (Canis lupus), XP_853402 (protein) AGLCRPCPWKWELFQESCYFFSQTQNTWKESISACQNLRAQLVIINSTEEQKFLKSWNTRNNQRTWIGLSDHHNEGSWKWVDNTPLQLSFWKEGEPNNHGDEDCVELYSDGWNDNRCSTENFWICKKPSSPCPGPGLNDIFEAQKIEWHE", "YES"],
  ["NPA (Narcissus pseudonarcissus), C0HM45 (protein) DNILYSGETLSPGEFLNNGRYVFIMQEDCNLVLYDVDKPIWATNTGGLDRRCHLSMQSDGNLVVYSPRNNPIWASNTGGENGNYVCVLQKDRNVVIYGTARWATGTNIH", "YES"],
  ["SP8524D-bot-399-27-399 (Bacteroides ovatus) (protein) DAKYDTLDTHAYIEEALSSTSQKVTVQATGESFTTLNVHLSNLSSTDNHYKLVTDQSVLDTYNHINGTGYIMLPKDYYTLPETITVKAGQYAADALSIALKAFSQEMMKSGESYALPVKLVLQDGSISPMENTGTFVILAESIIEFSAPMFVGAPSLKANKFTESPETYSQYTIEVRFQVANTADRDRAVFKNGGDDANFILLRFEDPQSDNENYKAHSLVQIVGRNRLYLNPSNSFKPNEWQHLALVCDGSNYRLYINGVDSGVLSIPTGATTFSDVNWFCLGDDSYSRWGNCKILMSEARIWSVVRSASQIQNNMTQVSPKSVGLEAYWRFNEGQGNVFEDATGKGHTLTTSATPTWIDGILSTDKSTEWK", "YES"],
  ["pilr alpha (protein) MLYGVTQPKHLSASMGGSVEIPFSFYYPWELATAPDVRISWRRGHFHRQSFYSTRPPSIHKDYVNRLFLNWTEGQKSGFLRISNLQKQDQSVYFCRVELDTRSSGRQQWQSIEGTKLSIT", "NO"],
  ["LgFlo1 (Saccharomyces pastorianus), B3IUA8 (protein) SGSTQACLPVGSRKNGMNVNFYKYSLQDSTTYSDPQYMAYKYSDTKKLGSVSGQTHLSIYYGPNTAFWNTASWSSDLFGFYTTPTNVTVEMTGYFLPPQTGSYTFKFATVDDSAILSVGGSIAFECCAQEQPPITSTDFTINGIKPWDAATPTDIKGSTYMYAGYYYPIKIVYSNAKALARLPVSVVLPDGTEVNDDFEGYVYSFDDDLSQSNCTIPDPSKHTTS", "YES"],
  ["Mcg Light Chain Dimer (Homo sapiens), Q6PIK1 (protein) MAGFPLLLTLLTHCAGSWGQSLLTQPPSVSGTPGQRVTISCSGSSSNIGINYVYWYQQIPGTAPKLLISTNDQRPSGVPDRFSGSKSGTSASLAIGGLRSEDEAHYYCAAWDDSMSGPGYAFGTGTKVTVLRQPKANPTVTLFPPSSEELQANKATLVCLISDFYPGAVTVAWKADGSPVKAGVETTKPSKQSNNKYAASSYLSLTPEQWKSHRSYSCQVTHEGSTVEKTVAPTECS", "NO"],
  ["Gal 9 (Canis lupus) (protein) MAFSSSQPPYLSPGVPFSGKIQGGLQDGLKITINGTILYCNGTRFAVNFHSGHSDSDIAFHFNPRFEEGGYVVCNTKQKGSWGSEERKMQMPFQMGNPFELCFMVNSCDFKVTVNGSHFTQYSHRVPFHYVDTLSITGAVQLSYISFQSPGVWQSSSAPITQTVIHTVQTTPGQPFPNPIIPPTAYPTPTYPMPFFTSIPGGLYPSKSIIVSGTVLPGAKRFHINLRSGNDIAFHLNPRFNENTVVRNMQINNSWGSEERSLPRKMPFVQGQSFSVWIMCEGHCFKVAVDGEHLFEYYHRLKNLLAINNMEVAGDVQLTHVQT", "YES"]
]}
